method notes: PK analysis in satellite dogs
Format: in vivo, dog
conditions used: male, beagle, dog, whole blood, po, 5 mg/kg; read-out: T1/2 (converted)
test readout: half-life (h)
Please state the figure in h; there is no need to write the unit.

Noted for O=C(Nc1ccc(OC(F)(F)F)cc1)N[C@H]1CC[C@H](Oc2ccc(C(=O)O)cc2)CC1 : its half-life reads 25

----------
method notes: Solubility of sEHI
Format: physicochemical
conditions used: aqueous buffer, thermodynamic from solid; PBS pH 7.4, 40°C, 24 h
test readout: solubility at 24 h (mg/mL)
Please state the figure in mg/mL; there is no need to write the unit.

Noted for CN(C(=O)N[C@H]1CC[C@H](Oc2ccc(C(=O)O)cc2)CC1)c1ccc(OC(F)(F)F)cc1 : its solubility at 24 h reads 0.13

----------
method notes: Blood and synovial fluid concentrations in treated osteoarthritic dogs
Assay type: in vivo, dog
conditions used: beagle, dog, synovial fluid, oral, 5 mg/kg, EC1728 5 mg/kg, dog 2.4 (low exposure, removed from analysis); read-out: Synovial fluid concentration, dog 2.4
test readout: concentration at 2 h

Noted for O=C(Nc1ccc(OC(F)(F)F)cc1)N[C@H]1CC[C@H](Oc2ccc(C(=O)O)cc2)CC1 : its concentration at 2 h reads 80 to 95 ng/mL

----------
method notes: PK analysis in satellite dogs
Format: in vivo, dog
conditions used: female, beagle, dog, whole blood, po, 5 mg/kg, dosed EC1728 5 mg/kg oral qd; female dog; Day 1; detected EC1728; blood
Method: Eight satellite dogs (2 per each group) had whole blood collected for PK analysis on study Days […]. On Day 1, blood was collected immediately prior to dosing, and again at 0.25, 0.5, 1, 2, 4, 6, and 8 (±5 min) after dosing. […] For PK analysis in the satellite group, individual parameters were calculated by fitting blood concentrations to a non-compartmental analysis using Kinetica software (Thermo Fisher Scientific version 5.1). […]
test readout: Cmax (ng/mL)
Please state the figure in ng/mL; there is no need to write the unit.

Noted for O=C(Nc1ccc(OC(F)(F)F)cc1)N[C@H]1CC[C@H](Oc2ccc(C(=O)O)cc2)CC1 : its Cmax reads 1160

----------
method notes: Solubility of sEHI
Type: physicochemical
conditions used: PEG300, organic solvent or mixture
Could you please report measured solubility for the items listed next?
Please state the figure in mg/mL; there is no need to write the unit.

Noted for CN(C(=O)N[C@H]1CC[C@H](Oc2ccc(C(=O)O)cc2)CC1)c1ccc(OC(F)(F)F)cc1 [EC3039] : its solubility reads 99

Noted for O=C(Nc1ccc(OC(F)(F)F)cc1)N[C@H]1CC[C@H](Oc2ccc(C(=O)O)cc2)CC1 [EC1728] : its solubility reads 97

----------
method notes: PK analysis in satellite dogs
Type: in vivo, dog
conditions used: female, beagle, dog, whole blood, po, 1 mg/kg, dosed EC1728 1 mg/kg oral qd; female dog; Day 1; detected EC1728; blood
test readout: AUC(0-t)
Put your answer as a value accompanied by its unit after it.

Noted for O=C(Nc1ccc(OC(F)(F)F)cc1)N[C@H]1CC[C@H](Oc2ccc(C(=O)O)cc2)CC1 : its AUC(0-t) reads 1350 ng·h/mL

----------
method notes: PK analysis in satellite dogs
Assay type: in vivo, dog
conditions used: female, beagle, dog, whole blood, po, 1 mg/kg, dosed EC1728 1 mg/kg oral qd; female dog; Day 5; detected EC1728; blood
test readout: AUC(0-t) (µg·h/mL)
Please state the figure in µg·h/mL; there is no need to write the unit.

Noted for O=C(Nc1ccc(OC(F)(F)F)cc1)N[C@H]1CC[C@H](Oc2ccc(C(=O)O)cc2)CC1 [EC1728] : its AUC(0-t) reads 155
